- assay_explanation: activity coefficient (dimensionless); of the first substance listed, at infinite dilution; xn = mol fraction of the nth substance listed
- test_context: 328.15 K; 101.33 kPa; Liquid; Chromatography; x1 = 0
Exercise: for every item that follows, state its recorded activity coefficient.
Answer with a number only.

Could you share which activity coefficient value was measured for CCO [ethanol] + CCCCCCCCCCCCn1cc[n+](C)c1.O=S(=O)([N-]S(=O)(=O)C(F)(F)F)C(F)(F)F ?
1.3

Now the same for CC(C)OC(C)C [diisopropyl ether] + CCCCCCCCCCCCn1cc[n+](C)c1.O=S(=O)([N-]S(=O)(=O)C(F)(F)F)C(F)(F)F
1.72

Now the same for C#CCCCC [1-hexyne] + CCCCCCCCCCCCn1cc[n+](C)c1.O=S(=O)([N-]S(=O)(=O)C(F)(F)F)C(F)(F)F
1.3

Now the same for C1CCCCCCC1 [cyclooctane] + CCCCCCCCCCCCn1cc[n+](C)c1.O=S(=O)([N-]S(=O)(=O)C(F)(F)F)C(F)(F)F
2.82

Now the same for COC(C)=O [methyl ethanoate] + CCCCCCCCCCCCn1cc[n+](C)c1.O=S(=O)([N-]S(=O)(=O)C(F)(F)F)C(F)(F)F
0.525

Now the same for CCCCCCCC [octane] + CCCCCCCCCCCCn1cc[n+](C)c1.O=S(=O)([N-]S(=O)(=O)C(F)(F)F)C(F)(F)F
4.22

Now the same for C=CCCCCCC [oct-1-ene] + CCCCCCCCCCCCn1cc[n+](C)c1.O=S(=O)([N-]S(=O)(=O)C(F)(F)F)C(F)(F)F
3.1

Now the same for CCCCC [pentane] + CCCCCCCCCCCCn1cc[n+](C)c1.O=S(=O)([N-]S(=O)(=O)C(F)(F)F)C(F)(F)F
2.6

Now the same for CCCO [propan-1-ol] + CCCCCCCCCCCCn1cc[n+](C)c1.O=S(=O)([N-]S(=O)(=O)C(F)(F)F)C(F)(F)F
1.36

Now the same for C=CCCC [1-pentene] + CCCCCCCCCCCCn1cc[n+](C)c1.O=S(=O)([N-]S(=O)(=O)C(F)(F)F)C(F)(F)F
1.88

Now the same for C1CCCCC1 [cyclohexane] + CCCCCCCCCCCCn1cc[n+](C)c1.O=S(=O)([N-]S(=O)(=O)C(F)(F)F)C(F)(F)F
2.15

Now the same for Cc1ccccc1C [1,2-dimethylbenzene] + CCCCCCCCCCCCn1cc[n+](C)c1.O=S(=O)([N-]S(=O)(=O)C(F)(F)F)C(F)(F)F
0.851

Now the same for CCCC(=O)OC [methyl butanoate] + CCCCCCCCCCCCn1cc[n+](C)c1.O=S(=O)([N-]S(=O)(=O)C(F)(F)F)C(F)(F)F
0.643

Now the same for c1ccncc1 [pyridine] + CCCCCCCCCCCCn1cc[n+](C)c1.O=S(=O)([N-]S(=O)(=O)C(F)(F)F)C(F)(F)F
0.404

Now the same for CCC(=O)CC [pentan-3-one] + CCCCCCCCCCCCn1cc[n+](C)c1.O=S(=O)([N-]S(=O)(=O)C(F)(F)F)C(F)(F)F
0.444

Now the same for CCC(C)CC [3-methylpentane] + CCCCCCCCCCCCn1cc[n+](C)c1.O=S(=O)([N-]S(=O)(=O)C(F)(F)F)C(F)(F)F
2.83

Now the same for Cc1ccc(C)cc1 [1,4-dimethylbenzene] + CCCCCCCCCCCCn1cc[n+](C)c1.O=S(=O)([N-]S(=O)(=O)C(F)(F)F)C(F)(F)F
0.914

Now the same for CCCCO [butan-1-ol] + CCCCCCCCCCCCn1cc[n+](C)c1.O=S(=O)([N-]S(=O)(=O)C(F)(F)F)C(F)(F)F
1.46

Now the same for C=CCCCC [hex-1-ene] + CCCCCCCCCCCCn1cc[n+](C)c1.O=S(=O)([N-]S(=O)(=O)C(F)(F)F)C(F)(F)F
2.2

Now the same for CCC(C)O (configuration not stated) [butan-2-ol] + CCCCCCCCCCCCn1cc[n+](C)c1.O=S(=O)([N-]S(=O)(=O)C(F)(F)F)C(F)(F)F
1.23

Now the same for CCCCCCCCC [nonane] + CCCCCCCCCCCCn1cc[n+](C)c1.O=S(=O)([N-]S(=O)(=O)C(F)(F)F)C(F)(F)F
4.97

Now the same for CCC(C)(C)C [2,2-dimethylbutane] + CCCCCCCCCCCCn1cc[n+](C)c1.O=S(=O)([N-]S(=O)(=O)C(F)(F)F)C(F)(F)F
2.89

Now the same for CC(C)(C)O [2-methylpropan-2-ol] + CCCCCCCCCCCCn1cc[n+](C)c1.O=S(=O)([N-]S(=O)(=O)C(F)(F)F)C(F)(F)F
1.08

Now the same for CCOC(C)=O [ethyl acetate] + CCCCCCCCCCCCn1cc[n+](C)c1.O=S(=O)([N-]S(=O)(=O)C(F)(F)F)C(F)(F)F
0.567

Now the same for C1CCOC1 [tetrahydrofuran] + CCCCCCCCCCCCn1cc[n+](C)c1.O=S(=O)([N-]S(=O)(=O)C(F)(F)F)C(F)(F)F
0.417

Now the same for C1CCCCCC1 [cycloheptane] + CCCCCCCCCCCCn1cc[n+](C)c1.O=S(=O)([N-]S(=O)(=O)C(F)(F)F)C(F)(F)F
2.45

Now the same for CCCC=O [butanal] + CCCCCCCCCCCCn1cc[n+](C)c1.O=S(=O)([N-]S(=O)(=O)C(F)(F)F)C(F)(F)F
0.486
